Molecular target: HLA-A*3301 (human)
I'd appreciate it if you could supply binding affinity ratio (IC50 of standard peptide / IC50 of test peptide) values for the items below.
Give bare numbers.

Some binders with known binding affinity ratio (IC50 of standard peptide / IC50 of test peptide) results, for comparison:
{"BINDER": "PLTVNEKR (modifications not checked) [HBV POL 98 peptide PLTVNEKR]", "ENDPOINT RESULT": -0.0009}
{"BINDER": "NSVVLSRK (modifications not checked) [HBV POL 738 peptide NSVVLSRK]", "ENDPOINT RESULT": -0.0009}
{"BINDER": "PLSYQHFR (modifications not checked) [HBV POL 2 peptide PLSYQHFR]", "ENDPOINT RESULT": -0.0009}
{"BINDER": "PLTVNEKRR (modifications not checked) [HBV POL 98 peptide …]", "ENDPOINT RESULT": 0.0027}
{"BINDER": "PARDVLCLR (modifications not checked) [HBV X 11 peptide …]", "ENDPOINT RESULT": 0.018}

Answer for every listed entry: what is its binding affinity ratio (IC50 of standard peptide / IC50 of test peptide)? The entries follow.
1. RSPRRRTPSPR (modifications not checked) [HBV NUC 183 peptide …]
2. PLEEELPR (modifications not checked) [HBV POL 20 peptide PLEEELPR]

Reply |
1. -0.0023
2. -0.0009
